# Kd per entry for TsOYE (Thermus scotoductus)
Reported metric: Kd (µM)

P = CCCCN1C=CCC(C(N)=O)=C1
Q = NC(=O)C1=CN([C@@H]2O[C@H](COP(=O)(O)OP(=O)(O)OC[C@H]3O[C@@H](n4cnc5c(N)ncnc54)[C@H](OP(=O)(O)O)[C@@H]3O)[C@@H](O)[C@H]2O)C=CC1
When P and Q are compared, which has the higher number for Kd? Select an item and report its label.
P

a = NC(=O)C1=CN([C@@H]2O[C@H](COP(=O)(O)OP(=O)(O)OC[C@H]3O[C@@H](n4cnc5c(N)ncnc54)[C@H](O)[C@@H]3O)[C@@H](O)[C@H]2O)C=CC1
b = NC(=O)C1=CN(Cc2ccccc2)C=CC1
So which one has the bigger Kd here, a or b ? Record your answer as the label of the chosen record.
b
(b: 227 µM, a: 8 µM)
